- assayExplanation: Ulcerogenic effect in rats
- Set-up: species or system male rats of Wister strain
- conditionParameters: rat, in vivo; oral; 24 hours under abstinence from food and water; read-out: UD50 (dose which induces ulcerogenic index 5)
- Method: To male rats of Wister strain (body weight: 180-230 g, 7 to 8 rats per group) which had been fasted for 24 hours with free access to water was orally administered a test compound suspended in 0.5% (w/v) aqueous carboxymethylcellulose solution in a proportion of 1 ml/100 g of body weight. […] Subsequently, UD50 (mg/kg) which is the dose of the test compound which induces ulcerogenic index 5 was determined on each test compound. […]

| compound | TD50 at 24 h (mg/kg) |
| --- | --- |
| COc1ccc2c(c1)c(CC(=O)O)c(C)n2C(=O)c1ccc(Cl)cc1 [IM, indomethacin, reference compound] | 4.3 |

====

- assayExplanation: Ulcerogenic effect in rats
- Parameters: species or system male rats of Wister strain
- conditionParameters: rat, in vivo, po

| compound | TD50 at 5 h |
| --- | --- |
| CS(=O)(=O)Nc1cc2occc(=O)c2cc1Oc1ccccc1 [Compound 1] | > 300 mg/kg |
| CS(=O)(=O)Nc1cc2occc(=O)c2cc1Oc1ccc(F)cc1F [Compound 94] | > 300 mg/kg |

====

- assayExplanation: Oral acute toxicity in mice
- Format: in vivo, ICR strain male mice
- conditionParameters: mouse, in vivo; oral, mice
- Procedure: ICR strain male mice (body weight: 20-25 g, […], 3 mice per group) were tested for oral acute toxicity. A test compound suspended in 0.5% (w/v) aqueous carboxymethylcellulose solution was orally administered to the mice in a proportion of 0.2 ml/10 g of body weight. After the administration, general symptom was observed over one week.
reportedMetric: LD50 at 168 h (mg/kg)

| compound | recordedValue |
| --- | --- |
| COc1ccc2c(c1)c(CC(=O)O)c(C)n2C(=O)c1ccc(Cl)cc1 [IM, indomethacin, reference compound] | 25 |

====

- assayExplanation: Ulcerogenic effect in rats
- Set-up: species or system male rats of Wister strain
- conditionParameters: rat, in vivo, po
Collected TD50 at 24 h values appear next to each entry.

| compound | TD50 at 24 h |
| --- | --- |
| Cc1ccccc1Oc1cc2c(=O)c(NC=O)coc2cc1NS(C)(=O)=O [Compound 46] | > 500 mg/kg |
| CS(=O)(=O)Nc1cc2occ(NC=O)c(=O)c2cc1Oc1ccccc1 [Compound 99] | > 500 mg/kg |
| CS(=O)(=O)Nc1cc2occ(NC=O)c(=O)c2cc1Oc1ccccc1F [Compound 34] | > 500 mg/kg |
| CS(=O)(=O)Nc1cc2occ(NC=O)c(=O)c2cc1Oc1ccc(F)cc1F [Compound 39] | > 500 mg/kg |

====

Collected inhibition in vivo at 10 mg/kg values appear next to each entry.
- Test system: Carrageenin-Induced Paw Edema
- assayExplanation: Carrageenin-induced paw edema in rats (inhibitory activity)
- Assay type: in vivo, male rats of Donryu strain
- conditionParameters: Rattus norvegicus; 10 mg/kg oral, 1 h before carrageenin; paw volume 3 h after; read-out: Inhibitory effect (carrageenin-induced paw edema)
- Method: (1) Carrageenin-induced paw edema This inhibitory activity was tested according to the method of C. A. Winter et al. [Proceedings of the Society for Experimental Biology and Medicine, vol. After one hour, 0.1 ml of a 1% carrageenin was injected into the subplantar region of the left hind paw. […]

| molSmiles | inhibition in vivo at 10 mg/kg |
| --- | --- |
| CS(=O)(=O)Nc1cc2occc(=O)c2cc1Nc1ccccc1 | 30 to 40% |
| CS(=O)(=O)Nc1cc2occc(=O)c2cc1Oc1ccc(F)cc1F | 30 to 40% |
| CS(=O)(=O)Nc1cc2occ(C(N)=O)c(=O)c2cc1Oc1ccccc1 | 20 to 30% |
| CS(=O)(=O)Nc1cc2occ(NC=O)c(=O)c2cc1Oc1ccccc1 | > 40% |
| CS(=O)(=O)Nc1cc2occ(NC=O)c(=O)c2cc1Sc1ccccc1 | 30 to 40% |

====

Collected inhibition in vivo at 10 mg/kg values appear next to each entry.
- Test system: Carrageenin-Induced Paw Edema
- assayExplanation: Carrageenin-induced paw edema in rats (inhibitory activity)
- Type: in vivo, male rats of Donryu strain
- conditionParameters: Rattus norvegicus; 10 mg/kg oral, 1 h before carrageenin; paw volume 3 h after; read-out: Inhibitory effect (carrageenin-induced paw edema)

| molSmiles | inhibition in vivo at 10 mg/kg |
| --- | --- |
| CNc1coc2cc(NS(C)(=O)=O)c(Oc3ccccc3)cc2c1=O | 30 to 40% |
| CN(C=O)c1coc2cc(NS(C)(=O)=O)c(Oc3ccccc3)cc2c1=O | > 40% |
| Cc1oc2cc(NS(C)(=O)=O)c(Oc3ccccc3)cc2c(=O)c1C(N)=O | 15 to 20% |
| CS(=O)(=O)Nc1cc2occ(NC=O)c(=O)c2cc1Oc1ccc(F)cc1F | > 40% |
| CC(=O)N(c1cc2occc(=O)c2cc1Oc1ccccc1)S(C)(=O)=O | 30 to 40% |
| Cc1cc(=O)c2cc(Oc3ccccc3)c(NS(C)(=O)=O)cc2o1 | 20 to 30% |
| CS(=O)(=O)Nc1cc2occ(NC=O)c(=O)c2cc1Oc1ccccc1F | > 40% |
| CSc1coc2cc(NS(C)(=O)=O)c(Oc3ccccc3)cc2c1=O | 20 to 30% |
| CS(=O)(=O)Nc1cc2occc(=O)c2cc1Oc1ccccc1 | 30 to 40% |
| Cc1ccccc1Oc1cc2c(=O)c(NC=O)coc2cc1NS(C)(=O)=O | > 40% |
| O=CNc1coc2cc(NS(=O)(=O)CCl)c(Oc3ccccc3)cc2c1=O | > 40% |
